B1: CDC25A (parent)
chain: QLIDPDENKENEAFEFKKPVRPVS

Variants of: B1
Experiment: protein stability index of a GFP-peptide fusion (GPS, HEK-293T) (PSI 1-6); higher = more stable;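 also: lentivirally expressed fusions sorted by FACS into six bins by GFP to DsRed ratio, PSI derived from sequencing read proportions per bin multiplied by bin number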
Settings: c terminus: a fixed tail appended
Record Fulfilled whenever protein stability index is at 4 or higher; record Not fulfilled when lower.

Could you please find out whether "E7G" has protein stability index that meets 4 or exceeds it?
Not fulfilled

# iterate: "Q1H"
Fulfilled

"P5Y" , same question.
Not fulfilled

Same again, this time with "E12F"
Not fulfilled

Do the same for "K9Q" please
Fulfilled

Also "P22G" , if possible.
Not fulfilled

What do you have for "K18H" ?
Not fulfilled

Also "N11P" , if possible.
Fulfilled

Further, for "E10I" ?
Fulfilled

Okay, and "S24Q" ?
Fulfilled

Param item: "Q1W"
Not fulfilled

// repeat for "S24R" and report
Not fulfilled

Further, for "E12C" ?
Not fulfilled

// repeat for "Q1T" and report
Not fulfilled

Please answer likewise for "N11Y"
Fulfilled

Let us now turn to "K17P"
Fulfilled

// repeat for "E7S" and report
Not fulfilled

Now the same for "V20F"
Not fulfilled

Same lookup for "E15V" , please.
Not fulfilled

Ok, now "P22Y"
Fulfilled

And then "L2H" , what is it?
Fulfilled

Next variant up: "E10N"
Not fulfilled

Now try "K18N" .
Fulfilled

Do the same for "R21A" please
Not fulfilled

Queued: "V23M"
Not fulfilled

Another variant: "E15P"
Fulfilled

Input "E10V"
Not fulfilled

Try "P5F" next.
Not fulfilled

Proceed to "N8G"
Fulfilled

Entry to check: "P19L"
Not fulfilled

Next entry: "E12N"
Not fulfilled

And then "F16L" , what is it?
Fulfilled

// repeat for "D4G" and report
Not fulfilled

Do the same for "K18D" please
Fulfilled

Then this variant: "F14R"
Not fulfilled

Do the same for "I3Y" please
Not fulfilled

Now the same for "D4I"
Not fulfilled
